- Tested on: Pseudomonas aeruginosa E-2
- TEST_METHOD_NOTES: MIC by serial dilution method on agar plate
- Format: cell-based
- STATED_CONDITIONS: 1 × 10^8 cells/ml
Provide the reported minimum inhibitory concentration (MIC) of each item.
# answer = number (no unit)

What value of measured minimum inhibitory concentration (MIC) is listed for O=C(O)c1cn(-c2ccc(F)cc2)c2cc(N3CCNCC3)c(F)cc2c1=O ? 0.78

What value of measured minimum inhibitory concentration (MIC) is listed for CN1CCN(c2cc3c(cc2F)c(=O)c(C(=O)O)cn3-c2ccc(O)cc2)CC1 ? 0.78

What value of measured minimum inhibitory concentration (MIC) is listed for CN1CCN(c2cc3c(cc2F)c(=O)c(C(=O)O)cn3-c2ccc(F)cc2)CC1 ? 3.12
